readoutName: melting point (°C)
Number only, in °C; omit the unit.

Annotate the compound OC1OCCOC1O (configuration not stated) with its measured melting point. 101

Annotate the compound O=CC=Cn1ccnc1 with its measured melting point. 118

Annotate the compound O=C(CCCN1CCC(O)(c2ccc(Br)cc2)CC1)c1ccc(F)cc1 with its measured melting point. 155

Annotate the compound COc1cc2ccc(=O)oc2cc1O with its measured melting point. 204

---

Label rule, in plain words: melting point of 100 °C and up is satisfied, under 100 °C is not satisfied.

Is melting point at least 100 °C? Consider Cc1cccc(C)c1NC(=O)c1cncc(Cl)n1 satisfied

Is melting point at least 100 °C? Consider CC(=O)C1(C)CCC2C3C=C(C)C4=CC(=O)CCC4(C)C3CCC21C (stereo unspecified) satisfied

Is melting point at least 100 °C? Consider CN(C)C(CSC(N)=O)CSC(N)=O satisfied

Is melting point at least 100 °C? Consider CC(C)(O)CCCC1=CCC(C=O)CC1 (stereo unspecified) not satisfied

Is melting point at least 100 °C? Consider CCOC(=O)CNC(=O)c1cn(CC)c2nc(C)ccc2c1=O satisfied

---

Definition: the class of an entry is the range in low value = under 20 °C, medium value = from 20 °C up to 200 °C, high value = 200 °C and over that contains its melting point.

Which class is correct for the following molecule? CC(C)(C)OCC1CO1 (stereo not drawn) low value

Which class is correct for the following molecule? CC(O)c1cc(C(F)(F)F)cc(C(F)(F)F)c1 (stereo not drawn) medium value

Which class is correct for the following molecule? CCOC(=O)C(C)OC(=O)c1cc(Oc2ccc(C(F)(F)F)cc2Cl)ccc1[N+](=O)[O-] (stereo not drawn) medium value

Which class is correct for the following molecule? O=C(Cl)COc1ccc(Cl)cc1 low value

Which class is correct for the following molecule? CNc1ccccn1 low value

Which class is correct for the following molecule? CN1CCC(=O)NC1=O medium value

Which class is correct for the following molecule? COc1ccccc1C1(C)CCc2oc3ccc(Br)cc3c2-c2oc(C)cc21 (stereo not drawn) high value

Which class is correct for the following molecule? CN(c1ccc2cc3ccc4c(c3nc2c1)COCN4)S(C)(=O)=O high value

Which class is correct for the following molecule? Cc1cc(C(=O)O)c(C)n1-c1ccc(Cl)cc1 high value

---

Classify: 1 when melting point is strictly less than 1 °C; -1 when melting point is not.

Dear reviewer, please state whether Clc1ccc(Oc2ccc(Cl)cc2)cc1 has melting point strictly beneath 1 °C. -1

Dear reviewer, please state whether CC(=O)c1nn(-c2ccccc2[N+](=O)[O-])c(=NC(=O)c2ccccc2)s1 has melting point strictly beneath 1 °C. -1

Dear reviewer, please state whether O=C(O)C(CCCc1ccccc1)c1ccccc1 (stereo not drawn) has melting point strictly beneath 1 °C. -1

Dear reviewer, please state whether CC12CC3CC(C1)CC(C)(C3)C2 has melting point strictly beneath 1 °C. 1

Dear reviewer, please state whether OCC1=CCN2CCC(O)C12 (stereo not drawn) has melting point strictly beneath 1 °C. -1

Dear reviewer, please state whether N#Cc1ccc(O)cc1F has melting point strictly beneath 1 °C. -1

Dear reviewer, please state whether CCC(C)CC has melting point strictly beneath 1 °C. 1

---

Label rule, in plain words: melting point of 100 °C and up is Condition met, under 100 °C is Condition not met.

Is melting point at least 100 °C? Consider O=C(COc1ccc(Cl)cc1)n1c(=O)sc2ccccc21 Condition met

Is melting point at least 100 °C? Consider C=CCc1ccc2c(c1)OCO2 Condition not met

Is melting point at least 100 °C? Consider Nc1ccc(Br)cc1C(=O)O Condition met

Is melting point at least 100 °C? Consider Oc1ccc2ccccc2c1/N=N/c1ccc(/N=N\c2ccccc2)cc1 Condition met

Is melting point at least 100 °C? Consider CC(=O)OC1=C(C(C)C)C(=O)C2=C(C1=O)C1(C)CCCC(C)(C)C1CC2OC(C)=O (centres undefined) Condition met

Is melting point at least 100 °C? Consider COC(=O)c1sc2ccccc2c1Cl Condition not met

Is melting point at least 100 °C? Consider O=C1CCC(=O)C1 Condition met

Is melting point at least 100 °C? Consider CC(=O)n1cc(C)c2ccccc21 Condition not met

Is melting point at least 100 °C? Consider CCN(CCO)CCn1c(Cc2ccccc2)nc2c1c(=O)n(C)c(=O)n2C Condition not met

Is melting point at least 100 °C? Consider O=C1Nc2ccc(I)cc2C1=O Condition met

Is melting point at least 100 °C? Consider NNC(=O)c1cccc(N)c1 Condition not met

Is melting point at least 100 °C? Consider Cc1ccc(-c2csc3nc(C(F)(F)F)cc(=O)n23)cc1 Condition met

Is melting point at least 100 °C? Consider Cc1c(Br)cc([N+](=O)[O-])c(N)c1C Condition met

Is melting point at least 100 °C? Consider Cc1c(F)c(F)c(CBr)c(F)c1F Condition not met

Is melting point at least 100 °C? Consider O=C1c2ccccc2S(=O)(=O)N1CCCCN1CCN(c2ncccn2)CC1 Condition met

Is melting point at least 100 °C? Consider N#C/C(=C/c1cccnc1)c1nc(-c2ccc(Cl)cc2)cs1 Condition met

Is melting point at least 100 °C? Consider O=C(O)COc1nn(Cc2ccccc2)c2ccccc12 Condition met

Is melting point at least 100 °C? Consider O=[N+]([O-])c1ccc(N/N=C2\Cc3ccccc32)c([N+](=O)[O-])c1 Condition met

Is melting point at least 100 °C? Consider CC(CCC(=O)O)C1CCC2C3CCC4CC(O)CCC4(C)C3CCC12C (centres undefined) Condition met

Is melting point at least 100 °C? Consider Brc1ccc2c(c1)CNCC2 Condition not met

Is melting point at least 100 °C? Consider CC(Cl)OC(=O)Cl (centres undefined) Condition not met

Is melting point at least 100 °C? Consider CC1CCC2(OC1)OC1CC3C4CCC5CC(O)CCC5(C)C4CCC3(C)C1C2C (centres undefined) Condition met

Is melting point at least 100 °C? Consider OCc1ccc(Cl)nc1 Condition not met

Is melting point at least 100 °C? Consider CCCCCCCC(O)CC (centres undefined) Condition not met

Is melting point at least 100 °C? Consider OC(c1ccccc1)c1ccc(C(F)(F)F)cc1 (centres undefined) Condition not met

Is melting point at least 100 °C? Consider NCCCNCCN Condition not met

Is melting point at least 100 °C? Consider Oc1ccc(Cl)c2cccnc12 Condition met

Is melting point at least 100 °C? Consider CC(=O)N1CCc2cc([N+](=O)[O-])ccc21 Condition met

Is melting point at least 100 °C? Consider O=C(NC1CCCCC1)c1ccccc1 Condition met

Is melting point at least 100 °C? Consider NC(=O)c1cc(Br)cc(Br)c1 Condition met

Is melting point at least 100 °C? Consider CC1=C(C(=O)O)CCCO1 Condition met

Is melting point at least 100 °C? Consider O=c1occcc1O Condition not met

Is melting point at least 100 °C? Consider c1ccc(CC2CCNCC2)cc1 Condition not met
